assay: logP by HPLC on reversed-phase columns (C 18), EEC Directive 79/831 Annex V.A8; format: physicochemical; settings: reversed-phase C18 HPLC column, pH 2.7, * LC-MS, acidic range pH 2.7, 0.1% aqueous formic acid and acetonitrile; read-out: log P
PARAMETER: chromatographic logP

given_smiles=COc1ccc(-c2c(C(F)(F)F)nn(-c3nccnc3OC)c2N)c(Br)c1OC data_value=2.87
given_smiles=COc1nccnc1-n1nc(C(F)(F)F)c(-c2cc(Cl)c3c(c2)OCO3)c1N data_value=3.14
given_smiles=COc1nccnc1-n1nc(C(F)(F)F)c(-c2cccnc2Cl)c1N data_value=2.19
given_smiles=CCc1nn(-c2nccnc2OC)c(N)c1-c1cc(Cl)c2c(c1)OCO2 data_value=2.57
given_smiles=CCc1nn(-c2nccnc2OC)c(N)c1-c1cc(Cl)c(OC)c(OC)c1 data_value=2.66
given_smiles=COc1nccnc1-n1nc(C(F)(F)F)c(-c2cc(Cl)c(Cl)c(Cl)c2)c1N data_value=4.35
given_smiles=COc1nccnc1-n1nc(C(F)(F)F)c(-c2ccc(Cl)cn2)c1N data_value=3.55
given_smiles=COc1nccnc1-n1nc(C(F)(F)F)c(-c2ccccn2)c1N data_value=2.59
given_smiles=COc1nccnc1-n1nc(C(F)(F)C(F)(F)F)c(-c2ccc(Cl)cn2)c1N data_value=4.17
given_smiles=COc1nccnc1-n1nc(C(F)(F)F)c(-c2cc(Br)cc(Br)c2)c1N data_value=4.1
given_smiles=COc1nccnc1-n1nc(C2CC2)c(-c2cc(Cl)c3c(c2)OCO3)c1N data_value=2.79
given_smiles=COc1nccnc1-n1nc(C(F)(F)F)c(-c2cc(Br)c3c(c2)OCO3)c1N data_value=3.18
given_smiles=COc1nccnc1-n1nc(C(F)(F)F)c(-c2cc(I)c3c(c2)OCO3)c1N data_value=3.27
given_smiles=CCOc1nccnc1-n1nc(C(F)(F)F)c(-c2cc(Cl)c3c(c2)OCO3)c1N data_value=3.48
given_smiles=COc1cc(-c2c(C(F)(F)C(F)(F)F)nn(-c3nccnc3OC)c2N)cc(Cl)c1OC data_value=3.8
given_smiles=CCOc1nccnc1-n1nc(CC)c(-c2cc(Br)c3c(c2)OCO3)c1N data_value=3.03
given_smiles=COc1nccnc1-n1nc(C(F)(F)F)c(-c2ncc(Cl)cc2Cl)c1N data_value=2.94
given_smiles=CCOc1nccnc1-n1nc(C(F)(F)F)c(-c2cc(F)c3c(c2)OCO3)c1N data_value=3.27
given_smiles=COc1nccnc1-n1nc(C(F)(F)C(F)(F)F)c(-c2ccc(Cl)nc2)c1N data_value=3.14
given_smiles=COc1nccnc1-n1nc(C(F)(F)F)c(-c2cc(C(F)(F)F)cc(C(F)(F)F)c2)c1N data_value=4.2
given_smiles=COc1cc(-c2c(C(F)(F)F)nn(-c3nccnc3OC)c2N)cc(Cl)c1OC data_value=3.22
given_smiles=COc1nccnc1-n1nc(C(F)(F)Cl)c(-c2cc(Cl)c3c(c2)OCO3)c1N data_value=3.26
given_smiles=COc1nccnc1-n1nc(C(F)(F)F)c(-c2ccccc2Br)c1N data_value=3
given_smiles=COc1nccnc1-n1nc(C(F)(F)F)c(-c2cc(C#N)c3c(c2)OCO3)c1N data_value=2.66
given_smiles=CCc1nn(-c2nccnc2OC)c(N)c1-c1cc(Br)c2c(c1)OCO2 data_value=2.65
given_smiles=COc1nccnc1-n1nc(C(F)(F)F)c(-c2cc(F)c3c(c2)OCO3)c1N data_value=2.91
given_smiles=CCOc1nccnc1-n1nc(CC)c(-c2cc(Cl)c3c(c2)OCO3)c1N data_value=2.96
given_smiles=COc1nccnc1-n1nc(C(C)C)c(-c2cc(Cl)c3c(c2)OCO3)c1N data_value=2.96
given_smiles=COc1nccnc1-n1nc(C(F)(F)F)c(-c2c(F)ccc(Cl)c2Cl)c1N data_value=3.31
given_smiles=COc1nccnc1-n1nc(C(F)(F)F)c(-c2ccccc2I)c1N data_value=3.09
given_smiles=COc1nccnc1-n1nc(C(F)(F)F)c(-c2cc3c(cc2Cl)OCO3)c1N data_value=2.86
given_smiles=COc1nccnc1-n1nc(C)c(-c2cc(Cl)c3c(c2)OCO3)c1N data_value=2.26
given_smiles=COc1nccnc1-n1nc(C(F)(F)F)c(-c2cncc(Br)c2)c1N data_value=2.62
given_smiles=CCOc1nccnc1-n1nc(C(F)(F)F)c(-c2cc(C#N)c3c(c2)OCO3)c1N data_value=3.01
given_smiles=COc1cc(-c2c(C(F)(F)F)nn(-c3nccnc3OC)c2N)cc(I)c1OC data_value=3.47
